target: human JAK2 (a.a. 828-1132) (Homo sapiens, UniProt O60674); construct: JAK2 (a.a. 828-1132); His tag (N); made in house; host or cells: insect cells (baculovirus); test: In vitro JAK kinase assay (HTRF, phosphorylation of a biotinylated peptide), JAK2; type: biochemical; conditions: method AA1 (30 μM ATP) or AA2 (1000 μM ATP), not stated per value
Sequence (O60674 828-1132): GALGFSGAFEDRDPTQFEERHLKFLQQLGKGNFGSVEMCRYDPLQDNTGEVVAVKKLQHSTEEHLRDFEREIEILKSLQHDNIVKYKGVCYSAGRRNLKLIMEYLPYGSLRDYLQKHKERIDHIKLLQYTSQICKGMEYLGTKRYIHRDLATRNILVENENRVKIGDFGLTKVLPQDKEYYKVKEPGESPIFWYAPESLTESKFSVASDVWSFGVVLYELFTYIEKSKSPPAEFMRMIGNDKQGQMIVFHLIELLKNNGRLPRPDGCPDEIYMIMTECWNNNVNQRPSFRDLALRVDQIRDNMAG
METRIC_NAME: pIC50
Reminder that pIC50 means the negative base-10 logarithm of the concentration expressed in mol/L.

Below: 2 compounds and their reported pIC50.
Cn1cc(C(=O)N2CCC(CC(=O)Nc3ccc4cc3CCc3cncc(c3)Nc3ncc(Cl)c(n3)N4)CC2)cn1 [Example A129, bis(trifluoroacetate)] :: 7.77
O=C(CC1CCN(c2ncc(F)cn2)CC1)Nc1ccc2cc1CCc1cncc(c1)Nc1ncc(Cl)c(n1)N2 [Example A169, tris(trifluoroacetate)] :: 6.88

q: So what does the record say about pIC50 for N[C@@H](CO)C(=O)Nc1ccc2cc1CCc1cccc(c1)Nc1ncc(Cl)c(n1)N2 [Example A109, bis(trifluoroacetate)] ?
a: 7.96

###

target: human JAK3 (a.a. 781-1124) (Homo sapiens, UniProt P52333); construct: JAK3 (a.a. 781-1124); His tag (N); made in house; host or cells: insect cells (baculovirus); test: In vitro JAK kinase assay (HTRF, phosphorylation of a biotinylated peptide), JAK3; assay type: biochemical; details: Table B1
Sequence (P52333 781-1124): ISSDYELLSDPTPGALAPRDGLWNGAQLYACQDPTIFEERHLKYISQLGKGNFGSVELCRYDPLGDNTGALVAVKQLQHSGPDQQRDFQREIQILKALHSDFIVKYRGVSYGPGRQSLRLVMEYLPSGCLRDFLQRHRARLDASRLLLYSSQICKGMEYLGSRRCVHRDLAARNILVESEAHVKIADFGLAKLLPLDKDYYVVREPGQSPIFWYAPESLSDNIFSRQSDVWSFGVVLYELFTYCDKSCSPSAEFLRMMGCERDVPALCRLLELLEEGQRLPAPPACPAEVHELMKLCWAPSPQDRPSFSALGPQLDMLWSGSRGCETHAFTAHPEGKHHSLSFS
pIC50: −log10 of the molar value.
// reported pIC50 per item

CN(C(=O)Nc1ccc2cc1CCc1cncc(c1)Nc1ncc(Cl)c(n1)N2)[C@H]1CCN(C(=O)c2ccccc2)C1 [Example B291, bis(trifluoroacetate)] :: < 6.70

// next entry
q: // query pIC50 value for entry Cc1oncc1S(=O)(=O)N1CCC(CN(C)Cc2ccc3cc2CCc2cncc(c2)Nc2ncc(Cl)c(n2)N3)CC1 [Example B342, tris(trifluoroacetate)]
a: < 6.40

###

target: TYK2 (Homo sapiens); assay: TYK2 kinase inhibition (Table A1); assay type: biochemical
Sequence (P29597 whole entry): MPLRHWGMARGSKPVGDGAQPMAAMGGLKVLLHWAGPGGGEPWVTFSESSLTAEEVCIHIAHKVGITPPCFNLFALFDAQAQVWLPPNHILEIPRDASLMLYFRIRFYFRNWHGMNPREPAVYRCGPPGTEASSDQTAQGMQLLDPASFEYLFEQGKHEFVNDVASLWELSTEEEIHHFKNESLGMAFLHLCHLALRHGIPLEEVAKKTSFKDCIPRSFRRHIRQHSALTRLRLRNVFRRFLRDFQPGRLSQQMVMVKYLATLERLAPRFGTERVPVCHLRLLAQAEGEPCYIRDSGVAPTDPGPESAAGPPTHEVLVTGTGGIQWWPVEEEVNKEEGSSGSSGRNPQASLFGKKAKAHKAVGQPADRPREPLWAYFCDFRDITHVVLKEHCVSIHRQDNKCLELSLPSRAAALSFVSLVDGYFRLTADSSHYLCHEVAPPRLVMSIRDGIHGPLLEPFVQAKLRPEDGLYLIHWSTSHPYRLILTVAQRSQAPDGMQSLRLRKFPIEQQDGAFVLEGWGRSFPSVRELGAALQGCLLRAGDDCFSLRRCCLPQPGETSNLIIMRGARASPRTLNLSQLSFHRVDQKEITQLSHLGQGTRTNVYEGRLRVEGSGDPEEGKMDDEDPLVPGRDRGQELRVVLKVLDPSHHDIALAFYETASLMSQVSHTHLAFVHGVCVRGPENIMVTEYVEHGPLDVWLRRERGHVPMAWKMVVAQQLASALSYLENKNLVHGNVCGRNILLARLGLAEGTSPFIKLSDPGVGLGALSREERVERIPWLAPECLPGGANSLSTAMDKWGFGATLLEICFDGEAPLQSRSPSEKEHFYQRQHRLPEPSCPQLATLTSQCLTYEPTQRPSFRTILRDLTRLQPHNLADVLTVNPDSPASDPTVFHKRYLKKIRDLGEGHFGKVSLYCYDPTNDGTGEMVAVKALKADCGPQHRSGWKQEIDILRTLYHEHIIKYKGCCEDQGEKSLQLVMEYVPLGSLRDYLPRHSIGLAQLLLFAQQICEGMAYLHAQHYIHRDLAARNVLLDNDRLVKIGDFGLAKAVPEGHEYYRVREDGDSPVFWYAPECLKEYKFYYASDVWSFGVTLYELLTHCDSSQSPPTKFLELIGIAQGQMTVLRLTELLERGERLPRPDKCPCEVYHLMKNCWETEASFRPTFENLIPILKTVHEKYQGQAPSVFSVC
Counter-ions that a name gives are not always drawn.
This listing pairs molecules with measured pIC50.
Would you please state pIC50, meaning minus log10 of the concentration in mol/L, as a bare number?

Example molecules with recorded pIC50:
O=C(Nc1ccc2cc1CCc1cccc(c1)Nc1ncc(Cl)c(n1)N2)[C@@H]1CCCN1 [Example A110, bis(trifluoroacetate)] :: 7.82
Cc1cc(C(=O)N2CCC(C(=O)Nc3ccc4cc3CCc3cccc(c3)Nc3ncc(Cl)c(n3)N4)CC2)no1 [Example A120, trifluoroacetate] :: 7.43
Cc1ccccc1NC(=O)N1CCC(CC(=O)Nc2ccc3cc2CCc2cncc(c2)Nc2ncc(Cl)c(n2)N3)CC1 [Example A149, bis(trifluoroacetate)] :: 8.16

As a next step, examine the molecule that follows.
q: Requested read-out: pIC50. Entry: CC(C)N1CCC(CC(=O)Nc2ccc3cc2CCc2cncc(c2)Nc2ncc(Cl)c(n2)N3)CC1 [Example A140, tris(trifluoroacetate)]
a: 7.17

###

target: human JAK1 (a.a. 837-1142) (Homo sapiens, UniProt P23458); construct: human JAK1 (a.a. 837-1142); His tag (N); made in house; host or cells: insect cells (baculovirus); experiment: In vitro JAK kinase assay (HTRF, phosphorylation of a biotinylated peptide), JAK1; type: biochemical; settings: read-out: JAK1 IC50
Sequence (P23458 849-1154): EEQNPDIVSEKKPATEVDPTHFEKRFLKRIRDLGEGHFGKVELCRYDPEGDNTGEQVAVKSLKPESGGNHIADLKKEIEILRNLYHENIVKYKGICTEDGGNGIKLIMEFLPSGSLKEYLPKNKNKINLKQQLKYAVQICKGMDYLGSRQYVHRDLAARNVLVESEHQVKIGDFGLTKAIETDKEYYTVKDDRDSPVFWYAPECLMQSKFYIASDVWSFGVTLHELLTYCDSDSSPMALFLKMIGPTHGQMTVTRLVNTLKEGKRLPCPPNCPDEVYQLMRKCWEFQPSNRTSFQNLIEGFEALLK
pIC50: −log10 of the molar value. Where a name gives a salt, the structure may show the parent alone.
METRIC_NAME: pIC50

q: Given O=C1Cc2cccc(c2)Nc2nc(ncc2Cl)Nc2cccc(c2)N1 [Example C11, trifluoroacetate] , state its recorded pIC50.
a: < 6.00

q: Please answer likewise for Clc1cnc2nc1Nc1cccc(c1)CCc1cccc(n1)N2
a: < 6.00

q: Now consider O=C1Nc2cccc(c2)Nc2nc(ncc2Cl)Nc2cccc1c2 [Example C2, hydrochloride] .
a: < 6.00
